target: FRMPD2_2, Q68DX3; assay: holdup assay; set-up: key: below the threshold = too weak to quantify, mostly under pKd 3.1 to 4; conditions: plain residues with an end cap or a label only (N-terminal biotin on a linker: ttds)
Sequence (Q68DX3 944-1038): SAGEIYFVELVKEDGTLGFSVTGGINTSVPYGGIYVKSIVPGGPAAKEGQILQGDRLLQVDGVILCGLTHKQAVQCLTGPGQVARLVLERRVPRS
Classify as follows. Reported pKd greater than or equal to 4: true. Reported pKd below: false.

Example entries and their recorded answers appear below.
1) NPDALPETLV [ARHGAP6, O43182]
true
2) SSIDLWETAL [SLC15A5, A6NIM6]
true
3) SHSSKGETAV [FZD7, O75084]
false
4) SGGKRKETLV [NET1, Q7Z628]
false
5) PSRDRKETSI [RALBP1, Q15311]
false

Proceed to the following item.
Does the reported pKd for GRLLGLETNV [ARHGEF26, Q96DR7] fall at or above the 4 mark?
true
